study-system: Gal4 DNA binding domain fused to the LBD of LXRα in HEK293 cells (Homo sapiens (Human), UniProt Q13133)
measurement-description: LXR luciferase transcriptional reporter gene assay, agonist mode, LXRα
Assay type: cell-based
condition-description: read-out: Cell LXRα EC50
quantity-measured: pEC50
Keep in mind that pEC50 stands for -log10 of concentration in molar terms.

# example entries with known answers
molecule	numeric-result
CS(=O)(=O)c1cccc(N2CCN(C[C@H]3CC[C@H](C(F)F)CC3)[C@@H](c3ccccc3)C2)c1 (single isomer, unassigned)	6.15
CC(C)[C@@H]1CN(c2ccc(CO)c(S(C)(=O)=O)c2)CCN1c1nc(C(F)(F)F)c(C(C)(C)O)o1	5.65

Next:
Q: Need pEC50 of `CS(=O)(=O)c1cccc(N2CCN(C[C@@H]3C[C@@H]4[C@H](C3)C4(F)F)[C@H](c3ccccc3)C2)c1` , thanks.
Ans: 5.12

---

study-system: UniProt Q13133
measurement-description: Human LXRα coactivator recruitment FRET assay, agonist mode
Assay type: biochemical
condition-description: Biological Test Example 3, agonist mode
Returns one of Yes or No; Yes when FRET LXRα efficacy is >= 40%.

Completed entries (count: 4):
molecule	category
CS(=O)(=O)c1cccc(N2CCN(CC3CCN(CC(F)(F)F)CC3)[C@H](c3ccccc3)C2)c1 (single isomer, unassigned) [48-51]	No
CS(=O)(=O)c1cccc(N2CCN(CC3CCN(CC(F)(F)F)CC3)[C@@H](c3ccccc3)C2)c1 (single isomer, unassigned) [48-52]	No
CS(=O)(=O)c1cccc(N2CCN(C[C@@H]3CCN(CC(F)(F)F)C3)[C@@H](c3ccccc3)C2)c1 (single isomer, unassigned) [48-61]	No
CS(=O)(=O)c1cccc(N2CCN(C[C@H]3CCN(CC(F)(F)F)C3)[C@H](c3ccccc3)C2)c1 (single isomer, unassigned) [48-60]	No

Q: Please indicate if the recorded FRET LXRα efficacy for CS(=O)(=O)c1cc(N2CCN(C[C@H]3CC[C@H](C(F)(F)F)CC3)[C@@H](c3ccccc3)C2)ccc1C#N (single isomer, unassigned) [50-4] meets or exceeds 40%.
Ans: Yes

---

study-system: Gal4 DNA binding domain fused to the LBD of LXRα in HEK293 cells (Homo sapiens (Human), UniProt Q13133)
measurement-description: LXR luciferase transcriptional reporter gene assay, agonist mode, LXRα
Format: cell-based
Recorded Cell LXRα efficacy, one value per entry.

compound	Cell LXRα efficacy
CS(=O)(=O)c1cccc(N2CCN(CC3CCN(CC(F)(F)F)CC3)[C@@H](c3ccccc3)C2)c1 (single isomer, unassigned)	736 (30) %
CS(=O)(=O)c1cccc(N2CCN(C[C@H]3CC[C@@H](C(F)(F)F)CC3)[C@H](c3ccccc3)C2)c1 (single isomer, unassigned)	4509 (17) %
CS(=O)(=O)c1cccc(N2CCN(C[C@H]3CC[C@@H](C(F)(F)F)CC3)[C@@H](c3ccccc3)C2)c1 (single isomer, unassigned)	254 (61) %
CC(C)[C@@H]1CN(c2ccc(F)c(S(C)(=O)=O)c2)CCN1C(=O)OC(C)(C)C(F)(F)F	947 (73) %

Q: Need Cell LXRα efficacy of CC(F)(F)[C@H]1CC[C@@H](CN2CCN(c3cccc(S(C)(=O)=O)c3)C[C@H]2c2ccccc2)CC1 (single isomer, unassigned) , thanks.
Ans: 6290 (43) %

Q: Need Cell LXRα efficacy of CS(=O)(=O)c1cccc(N2CCN(C[C@H]3CC[C@H](C(F)F)CC3)[C@@H](c3ccccc3)C2)c1 (single isomer, unassigned) , thanks.
Ans: 712 (25) %

Q: Need Cell LXRα efficacy of `COC(=O)c1ccc(N2CCN(c3ccc(F)c(S(C)(=O)=O)c3)C[C@H]2C(C)C)nc1C(F)(F)F` , thanks.
Ans: 649 (77) %

Q: Need Cell LXRα efficacy of `CC(C)[C@@H]1CN(c2ccc(F)c(S(C)(=O)=O)c2)CCN1c1cnc(C(F)(F)F)cn1` , thanks.
Ans: 120 (97) %

Q: Need Cell LXRα efficacy of C[C@@](O)(c1ccc(CN2CCN(c3cccc(S(C)(=O)=O)c3)C[C@H]2c2ccccc2)cc1)C(F)(F)F (single isomer, unassigned) , thanks.
Ans: 1787 (28) %

Q: Need Cell LXRα efficacy of CS(=O)(=O)c1cccc(N2CCN(C[C@H]3CC[C@H](C(F)(F)F)CC3)[C@@H](c3ccccc3)C2)c1 (single isomer, unassigned) , thanks.
Ans: 1245 (49) %

Q: Need Cell LXRα efficacy of CC(C)[C@H]1CN(c2cccc(S(C)(=O)=O)c2)CCN1C[C@@H]1CC[C@H](C(F)(F)F)OC1 (single isomer, unassigned) , thanks.
Ans: 103 (79) %

Q: Need Cell LXRα efficacy of CS(=O)(=O)c1cc(N2CCN(Cc3ccc(C(F)(F)F)nc3)C(c3ccccc3)C2)ccc1CO (stereo not shown) , thanks.
Ans: 8405 (46) %

Q: Need Cell LXRα efficacy of `Cc1cc(C)nc(N2CCN(c3cccc(S(C)(=O)=O)c3)C[C@H]2C(C)C)n1` , thanks.
Ans: 7923 (24) %

---

study-system: LXR α LBD protein (Homo sapiens (Human), UniProt Q13133)
Sequence (Q13133 209-447): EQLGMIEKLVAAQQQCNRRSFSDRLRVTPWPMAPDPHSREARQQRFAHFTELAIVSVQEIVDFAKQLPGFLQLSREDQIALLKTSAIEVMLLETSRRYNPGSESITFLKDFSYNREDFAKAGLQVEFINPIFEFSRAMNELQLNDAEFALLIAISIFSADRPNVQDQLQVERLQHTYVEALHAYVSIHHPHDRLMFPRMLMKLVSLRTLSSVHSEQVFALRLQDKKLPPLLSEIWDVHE
measurement-description: LXR α radioligand binding assay (SPA, competition with [3H]TO901317)
condition-description: read-out: LXRα Binding Ki
Ki strictly less than 100 nM = fulfilled. Otherwise not fulfilled.

Completed entries (count: 4):
compound	category
CS(=O)(=O)c1cccc(N2CCN(C[C@H]3CC[C@@]4(CC3)CC4(F)F)[C@@H](c3ccccc3)C2)c1 (single isomer, unassigned) [48-69]	not fulfilled
CC(C)[C@@H]1CN(c2ccc(CO)c(S(C)(=O)=O)c2)CCN1c1ncc(C(C)(C)O)c(C(F)(F)F)n1 [10-7]	not fulfilled
CC(C)[C@@H]1CN(c2ccc(F)c(S(C)(=O)=O)c2)CCN1c1ncc(C(F)(F)F)c(C(C)(C)O)n1 [Cpd No 39-1]	fulfilled
CC(C)Oc1cc(C(F)(F)F)nc(N2CCN(c3ccc(F)c(S(C)(=O)=O)c3)C[C@H]2C(C)C)n1 [Cpd No 23-1]	not fulfilled

Q: Please determine if CC(C)[C@H]1CC[C@H](CN2CCN(c3ccc(CO)c(S(C)(=O)=O)c3)C[C@@H]2c2ccccc2)CC1 (single isomer, unassigned) [48-77] is below 100 nM in terms of Ki.
Ans: not fulfilled

Q: Please determine if COc1cnc(N2CCN(c3ccc(F)c(S(C)(=O)=O)c3)C[C@H]2C(C)C)nc1C(F)(F)F [Cpd No 29-1] is below 100 nM in terms of Ki.
Ans: fulfilled

Q: Please determine if Cc1ccc(N2CCN(c3cccc(S(C)(=O)=O)c3)C[C@H]2C(C)C)nn1 [7-46] is below 100 nM in terms of Ki.
Ans: not fulfilled

---

study-system: Gal4 DNA binding domain fused to the LBD of LXRβ in HEK293 cells (Homo sapiens (Human))
Sequence (P55055 222-460 limits assumed): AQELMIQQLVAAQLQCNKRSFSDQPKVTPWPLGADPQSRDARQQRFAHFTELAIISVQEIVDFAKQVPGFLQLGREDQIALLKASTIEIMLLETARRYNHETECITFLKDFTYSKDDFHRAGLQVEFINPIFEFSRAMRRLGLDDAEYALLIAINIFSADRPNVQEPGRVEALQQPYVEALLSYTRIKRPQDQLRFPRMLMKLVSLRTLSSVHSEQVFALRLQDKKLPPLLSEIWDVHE
measurement-description: cell-based
Recorded Cell LXRβ efficacy, one value per entry.

# example entries with known answers
molecule	Cell LXRβ efficacy
CNS(=O)(=O)c1cc(N2CCN(c3ncc(C(=O)OC)c(C(F)(F)F)n3)[C@H](C(C)C)C2)ccc1F [9-6]	74 (41) %
Cc1nc(N2CCN(c3ccc(F)c(S(C)(=O)=O)c3)C[C@H]2C(C)C)ncc1C(F)(F)F [Cpd No 37-1]	41 (81) %
CC(C)[C@@H]1CN(c2ccc(F)c(S(C)(=O)=O)c2)CCN1c1nc2ccccc2o1 [7-52]	192 (48) %
CC(C)[C@@H]1CN(c2ccc(F)c(S(C)(=O)=O)c2)CCN1c1ccnc(OC(F)F)c1 [Cpd No 44-1]	70 (83) %
CC(C)[C@@H]1CN(c2ccc(F)c(S(C)(=O)=O)c2)CCN1c1nccc(C(N)=O)n1 [4-5]	1723 (24) %

Q: Query for Gal4 DNA binding domain fused to the LBD of LXRβ in HEK293 cells (Homo sapiens (Human)): what Cell LXRβ efficacy does the record show for CC(C)[C@H]1CN(c2ccc(CO)c(S(C)(=O)=O)c2)CCN1C[C@H]1CC[C@H](C(F)(F)F)OC1 (single isomer, unassigned) [Cpd No 49-2] ?
Ans: 78 (83) %

Q: Query for Gal4 DNA binding domain fused to the LBD of LXRβ in HEK293 cells (Homo sapiens (Human)): what Cell LXRβ efficacy does the record show for CC(C)[C@@H]1CN(c2ccc(F)c(S(C)(=O)=O)c2)CCN1c1ncc(Cl)c(C2CC2)n1 [Cpd No 22-1] ?
Ans: 139 (14) %

Q: Query for Gal4 DNA binding domain fused to the LBD of LXRβ in HEK293 cells (Homo sapiens (Human)): what Cell LXRβ efficacy does the record show for COC(=O)c1ccnc(N2CCN(c3ccc(F)c(S(C)(=O)=O)c3)C[C@H]2C(C)C)n1 [7-15] ?
Ans: 213 (65) %

Q: Query for Gal4 DNA binding domain fused to the LBD of LXRβ in HEK293 cells (Homo sapiens (Human)): what Cell LXRβ efficacy does the record show for C[C@H](c1ccc(C(F)(F)F)cc1)N1CCN(c2cccc(S(C)(=O)=O)c2)C[C@H]1c1ccccc1 [46-19] ?
Ans: 4348 (6) %

Q: Query for Gal4 DNA binding domain fused to the LBD of LXRβ in HEK293 cells (Homo sapiens (Human)): what Cell LXRβ efficacy does the record show for CCOC(=O)c1cnc(N2CCN(c3ccc(F)c(S(C)(=O)=O)c3)C[C@H]2C(C)C)nc1C [7-19] ?
Ans: 176 (32) %

Q: Query for Gal4 DNA binding domain fused to the LBD of LXRβ in HEK293 cells (Homo sapiens (Human)): what Cell LXRβ efficacy does the record show for CC(C)[C@H]1CN(c2ccc(CO)c(S(C)(=O)=O)c2)CCN1Cc1ccc(C(F)(F)F)cc1 [47-2] ?
Ans: 159 (65) %

Q: Query for Gal4 DNA binding domain fused to the LBD of LXRβ in HEK293 cells (Homo sapiens (Human)): what Cell LXRβ efficacy does the record show for CC(C)[C@@H]1CN(c2ccc(F)c(S(C)(=O)=O)c2)CCN1c1ncc(O)c(C(F)(F)F)n1 [Cpd No 30-1] ?
Ans: 729 (98) %
